Below is a list of entries, each paired with its recorded pIC50 value.
- Test System: Sirt3 (Homo sapiens)
- Construct: Sirt3_118−395; made in house
- Sequence (Q9NTG7 118-395): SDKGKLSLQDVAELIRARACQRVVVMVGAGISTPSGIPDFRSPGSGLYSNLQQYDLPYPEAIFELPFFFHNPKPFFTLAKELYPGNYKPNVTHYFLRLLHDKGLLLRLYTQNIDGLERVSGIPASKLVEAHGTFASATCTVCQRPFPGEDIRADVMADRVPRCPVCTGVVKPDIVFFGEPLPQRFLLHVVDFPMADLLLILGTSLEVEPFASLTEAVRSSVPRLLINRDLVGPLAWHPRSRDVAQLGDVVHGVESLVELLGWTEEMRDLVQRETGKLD
- Assay Overview: fluorescence-based deacetylase assay with Z-Lys(acetyl)-AMC (ZMAL) substrate
- Format: biochemical
- Settings: mean ± SD of duplicate experiments; read-out: Sirt3 inhibition IC50
pIC50 is defined as minus the log10 of a concentration measured in mol/L.

{"Molecule": "Cc1cc(O)cc(C)c1/C=C/c1cncc(C(N)=O)c1 [Compound 2a, reference compound]", "Test System": "Sirt3 (Homo sapiens)", "pIC50": 4.38}

Now, please, on to the next molecule.
Q: State the recorded pIC50 for this entry: NC(=O)c1cncc(/C=C/c2ccc(F)cc2)c1 [Compound 2c, (E)-5-(4-Fluorostyryl)nicotinamide]
A: 5.12

----------
- Test System: Sirt2 (Homo sapiens)
- Construct: Sirt2_56−356; made in house
- Sequence (Q8IXJ6 56-356): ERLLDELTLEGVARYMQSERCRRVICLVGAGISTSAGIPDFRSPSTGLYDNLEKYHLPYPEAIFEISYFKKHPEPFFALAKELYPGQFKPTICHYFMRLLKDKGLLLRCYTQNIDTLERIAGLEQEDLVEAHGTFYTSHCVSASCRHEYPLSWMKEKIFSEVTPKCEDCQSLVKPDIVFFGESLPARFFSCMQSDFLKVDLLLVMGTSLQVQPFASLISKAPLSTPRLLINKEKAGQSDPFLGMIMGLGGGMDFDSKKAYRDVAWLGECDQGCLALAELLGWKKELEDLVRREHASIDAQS
- Assay Overview: fluorescence-based deacetylase assay with Z-Lys(acetyl)-AMC (ZMAL) substrate
- Type: biochemical
- Settings: mean ± SD of duplicate experiments; read-out: Sirt2 inhibition IC50
Below is a list of entries, each paired with its recorded pIC50 value.
pIC50 is defined as minus the log10 of a concentration measured in mol/L.

{"Compound": "NC(=O)c1cncc(/C=C/c2ccccc2)c1 [Compound 2b, (E)-5-Styrylnicotinamide]", "Measure Name": "pIC50", "Experimental Value": 5.06}

Q: State the recorded pIC50 for this entry: Cc1cc(O)cc(C)c1/C=C/c1cncc(C(N)=O)c1 [Compound 2a, reference compound]
A: 4.61
